Listed here are sequences together with their documented protein stability index.
Test system: Saccharomyces cerevisiae
Assay: protein stability index of tFT-peptide fusion (C-terminal peptide) (PSI (0-1 scale)); higher = more stable (slower turnover)
Settings: genetic background: wild type; temperature: 30 C

Study these solved cases before continuing.
Polymer sequence | Recorded value
YCLAGVLCVFCV [YPR064W C-terminal 12 aa] | 0.433
ALDKYLIEIHHW [NPR3 C-terminal 12 aa] | 0.728
LPSPRFFSPITL [YER158W-A C-terminal 12 aa] | 0.702

### Prompt Specify protein stability index for VWSLYSRTALET [OAR1 C-terminal 12 aa] and stop.
### Response 0.608

Where these numbers come from: the supplement of paper PMC10724198
